biological target: F protein of human metapneumovirus strain JPS05-21 (type B2), on infectious virus (human metapneumovirus, strain JPS05-21 …); assay: cell-based or functional assay
measured metric: IC90, neutralizing activity (hMPV infection of LLC-MK2 cells; GraphPad Prism 6) (ng/mL)

>  <binder>
EV046142 (antibody, human IgG1, lambda, V domains shown) VH: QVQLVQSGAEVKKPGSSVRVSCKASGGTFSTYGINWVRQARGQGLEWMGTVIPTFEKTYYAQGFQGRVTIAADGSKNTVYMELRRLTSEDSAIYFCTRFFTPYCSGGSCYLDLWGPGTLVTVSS VL: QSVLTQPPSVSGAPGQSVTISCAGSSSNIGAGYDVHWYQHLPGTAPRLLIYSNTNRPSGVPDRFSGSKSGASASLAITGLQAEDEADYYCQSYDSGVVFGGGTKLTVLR

>  <units of measure>
ng/mL

>  <reported value>
1350

$$$$
>  <binder>
EV046116 (antibody, human IgG1, kappa, V domains shown) VH: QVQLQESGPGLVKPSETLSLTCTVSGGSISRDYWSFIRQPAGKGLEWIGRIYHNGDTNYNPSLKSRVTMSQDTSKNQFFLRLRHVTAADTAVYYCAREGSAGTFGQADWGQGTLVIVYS VL: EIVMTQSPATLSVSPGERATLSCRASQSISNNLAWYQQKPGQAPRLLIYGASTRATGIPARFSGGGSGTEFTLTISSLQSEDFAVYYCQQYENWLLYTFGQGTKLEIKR

>  <units of measure>
ng/mL

>  <reported value>
828

$$$$
>  <binder>
EV046143 (antibody, human IgG1, kappa, V domains shown) VH: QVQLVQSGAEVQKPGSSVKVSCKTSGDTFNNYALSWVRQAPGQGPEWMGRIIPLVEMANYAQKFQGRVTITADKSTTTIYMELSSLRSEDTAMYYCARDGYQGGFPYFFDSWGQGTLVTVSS VL: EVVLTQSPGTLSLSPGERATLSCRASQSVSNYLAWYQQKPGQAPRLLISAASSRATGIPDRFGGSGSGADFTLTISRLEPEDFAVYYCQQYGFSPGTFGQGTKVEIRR

>  <units of measure>
ng/mL

>  <reported value>
1300

$$$$
>  <binder>
EV046150 (antibody, human IgG1, kappa, V domains shown) VH: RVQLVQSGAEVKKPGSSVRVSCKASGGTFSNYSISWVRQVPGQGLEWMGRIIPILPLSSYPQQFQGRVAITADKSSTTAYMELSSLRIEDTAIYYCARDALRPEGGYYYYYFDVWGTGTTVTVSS VL: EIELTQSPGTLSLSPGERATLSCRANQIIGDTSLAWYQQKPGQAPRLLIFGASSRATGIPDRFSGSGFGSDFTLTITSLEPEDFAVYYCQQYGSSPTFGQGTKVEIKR

>  <units of measure>
ng/mL

>  <reported value>
404

$$$$

Entry source: patent US20150322137A1
